Where these numbers come from: patent US20220153821A1

Molecular target: T1, recombinant human tau (human, UniProt P10636-6 1-383, limits assumed)
T1 construct: also called recombinant tau
T1 sequence (P10636 other isoform, or with tags, fused parts or gaps limits assumed): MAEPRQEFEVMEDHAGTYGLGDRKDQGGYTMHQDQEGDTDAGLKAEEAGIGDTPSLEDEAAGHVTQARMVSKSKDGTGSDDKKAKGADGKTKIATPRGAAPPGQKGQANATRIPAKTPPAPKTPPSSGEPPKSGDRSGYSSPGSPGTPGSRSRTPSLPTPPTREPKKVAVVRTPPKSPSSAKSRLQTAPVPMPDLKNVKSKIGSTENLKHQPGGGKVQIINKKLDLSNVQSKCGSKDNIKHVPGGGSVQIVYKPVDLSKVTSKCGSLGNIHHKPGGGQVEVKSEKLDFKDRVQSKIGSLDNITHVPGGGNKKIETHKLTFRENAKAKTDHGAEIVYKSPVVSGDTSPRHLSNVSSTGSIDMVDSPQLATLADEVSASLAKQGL
Test: SPR, Biacore T200, antibody captured by anti-human antibody, tau as analyte, single cycle, 1:1 fit
Reported property: kon (M⁻¹ s⁻¹)
Your answer should be a plain number; it is taken to be in M⁻¹ s⁻¹.

Binder: Hu3D6VHvb6 / Hu3D6VLvb3 (antibody, V domains shown, Humanized 3D6 variant, expressed as intact antibody in HEK-293 cells; also called VHvb6/VLvb3) VH: EVQLVQSGAEVVKPGATVKISCKASGFTIKDYYLHWVRQRPGKGLEWIGWIDPEDGETVYDPKFQGRVTITADTSTDTAYMELSSLRSEDTAVYFCSTLDFWGQGTLVTVSS VL: DVVMTQSPLSLSVTLGEPASISCRSSQSLLDSDGKTYLNWLQQRPGQSPRRLIYLVSKLDSGVPDRFSGSGSGTDFTLKISRVEAEDVGVYYCWQGTHFPYTFGQGTKLEIKR
kon / M⁻¹ s⁻¹: 3.54e+06
--
Binder: Hu3D6VHvb7 / Hu3D6VLvb3 (antibody, V domains shown, Humanized 3D6 variant, expressed as intact antibody in HEK-293 cells; also called VHvb7/VLvb3) VH: EVQLVQSGAEVVKPGATVKISCKASGFTIKDYYLHWVRQRPGKGLEWIGWIDPEDGETVYDPKFQGRVTITADTSTDTAYMELSSLRSEDTAVYYCSTLDFWGQGTLVTVSS VL: DVVMTQSPLSLSVTLGEPASISCRSSQSLLDSDGKTYLNWLQQRPGQSPRRLIYLVSKLDSGVPDRFSGSGSGTDFTLKISRVEAEDVGVYYCWQGTHFPYTFGQGTKLEIKR
kon / M⁻¹ s⁻¹: 3.69e+06
--
Binder: Hu3D6VHvb5 / Hu3D6VLvb3 (antibody, V domains shown, Humanized 3D6 variant, expressed as intact antibody in HEK-293 cells; also called VHvb5/VLvb3) VH: EVQLVQSGAEVVKPGATVKISCKASGFTIKDYYLHWVRQRPGKGLEWIGWIDPEDGETIYDPKFQGRVTITADTSTDTAYMELSSLRSEDTAVYYCSTLDFWGQGTLVTVSS VL: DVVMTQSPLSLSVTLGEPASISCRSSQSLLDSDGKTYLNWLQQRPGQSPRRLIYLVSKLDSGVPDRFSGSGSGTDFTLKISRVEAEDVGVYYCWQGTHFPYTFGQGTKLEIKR
kon / M⁻¹ s⁻¹: 2e+06

Please look at the following binder next.
State, in one line, measured kon of Hu3D6VHvb3 / Hu3D6VLvb3 (antibody, V domains shown, Humanized 3D6 variant, expressed as intact antibody in HEK-293 cells; also called VHvb3/VLvb3) VH: EVQLVQSGAEVVKPGATVKISCKASGFNIKDYYLHWVRQRPGKGLEWIGWIDPENGDTIYDPKFQGRATITADTSTDTAYMELSSLRSEDTAVYYCSTLDFWGQGTLVTVSS VL: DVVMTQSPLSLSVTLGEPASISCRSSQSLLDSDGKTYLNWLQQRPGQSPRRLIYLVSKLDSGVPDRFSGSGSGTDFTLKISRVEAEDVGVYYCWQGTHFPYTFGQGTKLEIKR 1.6e+06
